# Lookup of reported EC50 (aequorin functional assay) keyed by entry
- system-name: human MCH-1R (human, UniProt Q99705 1-353)
- Sequence (Q99705 whole entry, form in doubt): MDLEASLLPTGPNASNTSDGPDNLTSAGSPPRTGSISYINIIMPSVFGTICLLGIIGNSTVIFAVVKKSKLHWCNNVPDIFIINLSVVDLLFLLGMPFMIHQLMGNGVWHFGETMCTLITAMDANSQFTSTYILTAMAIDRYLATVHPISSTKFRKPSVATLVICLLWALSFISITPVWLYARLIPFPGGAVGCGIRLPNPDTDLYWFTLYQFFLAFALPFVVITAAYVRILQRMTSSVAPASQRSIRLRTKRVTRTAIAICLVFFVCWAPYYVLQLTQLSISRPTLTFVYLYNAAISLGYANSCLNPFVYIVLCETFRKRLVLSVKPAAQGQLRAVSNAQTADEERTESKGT
- assay-details: cell-based or functional assay
Bridges are numbered along the chain shown (N, C = ends). [ ]: non-standard residue; d: D form. hArg = N=C(N)NCCCC[C@H](N)C(=O)O; dCha = N[C@H](CC1CCCCC1)C(=O)O; βAla = NCCC(=O)O

binder	EC50 (aequorin functional assay)
Ac-RCML[dCha]RVYRPC-NH2 (disulfide 2-11 (inferred), also called D-Cha^10) [SEQ. ID. NO. 16]	> 10 µM
Ac-RCML[dA][hArg]VYRPC-NH2 (disulfide 2-11 (inferred), also called D-Ala^10, Harg^11) [SEQ. ID. NO. 36]	> 10 µM
Ac-RCML[βAla]RVYRPC-NH2 (disulfide 2-11 (inferred)) [SEQ. ID. NO. 20]	> 1 µM
RCALXXVYRPC (D-Ala^10, Harg^11 (homoarginine), also called Ala^8, D-Ala^10, Harg^11) [SEQ. ID. NO. 38]	> 10 µM
RCALXRVYRPC (not fully specified; D-Ala^10, also called Ala^8, D-Ala^10) [SEQ. ID. NO. 35]	> 10 µM
RCMLGXVYRPC (Arg(NO2)^11 (nitroarginine), also called Arg(NO2)^11) [SEQ. ID. NO. 25]	> 1 µM
Ac-RCMLSRVYRPC-NH2 (disulfide 2-11; SMILES CSCC[C@@H]1NC(=O)[C@@H](NC(=O)[C@H](CCCNC(=N)N)NC(C)=O)CSSC[C@@H](C(N)=O)NC(=O)[C@@H]2CCCN2C(=O)[C@H](CCCNC(=N)N)NC(=O)[C@H](Cc2ccc(O)cc2)NC(=O)[C@H](C(C)C)NC(=O)[C@H](CCCNC(=N)N)NC(=O)[C@H](CO)NC(=O)[C@H](CC(C)C)NC1=O, also called Ser^10) [SEQ. ID. NO. 10]	0.065 µM
Ac-RCML[dF]RVYRPC-NH2 (disulfide 2-11 (inferred), also called D-Phe^10) [SEQ. ID. NO. 17]	> 10 µM
